target_desc: NACHT, LRR and PYD domains-containing protein 3 (Mus musculus, UniProt Q8R4B8)
Sequence (Q8R4B8 whole entry, the tested form may be a part): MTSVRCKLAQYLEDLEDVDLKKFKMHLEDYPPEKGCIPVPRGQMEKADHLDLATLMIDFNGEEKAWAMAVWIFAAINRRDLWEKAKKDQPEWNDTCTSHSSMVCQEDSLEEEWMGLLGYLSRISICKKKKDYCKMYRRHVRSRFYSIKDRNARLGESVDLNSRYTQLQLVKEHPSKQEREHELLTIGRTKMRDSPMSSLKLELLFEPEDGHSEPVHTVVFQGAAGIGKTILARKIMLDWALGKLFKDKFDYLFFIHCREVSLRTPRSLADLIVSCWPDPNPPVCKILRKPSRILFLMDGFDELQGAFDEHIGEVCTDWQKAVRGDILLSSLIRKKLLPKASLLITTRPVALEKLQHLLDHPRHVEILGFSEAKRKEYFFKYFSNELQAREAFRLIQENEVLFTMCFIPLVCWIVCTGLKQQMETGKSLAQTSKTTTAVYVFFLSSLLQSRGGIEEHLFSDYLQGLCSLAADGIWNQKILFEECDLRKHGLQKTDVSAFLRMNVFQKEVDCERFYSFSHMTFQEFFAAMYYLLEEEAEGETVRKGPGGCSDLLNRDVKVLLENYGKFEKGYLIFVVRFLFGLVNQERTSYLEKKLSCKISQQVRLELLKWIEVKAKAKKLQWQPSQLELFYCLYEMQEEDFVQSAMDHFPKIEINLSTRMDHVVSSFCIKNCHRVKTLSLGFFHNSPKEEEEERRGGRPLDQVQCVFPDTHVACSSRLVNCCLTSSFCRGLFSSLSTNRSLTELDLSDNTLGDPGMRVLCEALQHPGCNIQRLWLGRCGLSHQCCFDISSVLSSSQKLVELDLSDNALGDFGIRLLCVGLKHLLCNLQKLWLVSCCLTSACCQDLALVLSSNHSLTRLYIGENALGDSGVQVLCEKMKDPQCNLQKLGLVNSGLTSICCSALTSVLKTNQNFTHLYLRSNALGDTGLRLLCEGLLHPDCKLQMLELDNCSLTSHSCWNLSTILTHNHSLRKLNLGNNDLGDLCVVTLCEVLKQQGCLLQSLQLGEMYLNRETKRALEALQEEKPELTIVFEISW
assay_name: Inhibition of NLRP3 inflammasome in LPS-primed mouse J774.A1 cells assessed as reduction in IL-1beta secretion preincubated with compound for 1 hr followed by nigericin stimulation for 1 hr by ELISA
value_kind: IC50 (µM)

(1) CCCCc1oc2ccc(NS(=O)(=O)C3CCCCC3)cc2c1C(=O)c1ccc(OCCCN(CCCC)CCCC)cc1
(2) CCCCc1oc2ccc(NC(=O)Nc3ccc(Cl)cc3)cc2c1C(=O)c1ccc(OCCCN(CCCC)CCCC)cc1
Input: Could you determine which record has the numerically smaller IC50? Candidates: 1 and 2 Identify your selection by its label.
Output: 2
(2: 16.1 µM, 1: 25 µM)

====

Attribute: pIC50
target_desc: NACHT, LRR and PYD domains-containing protein 3 (Mus musculus, UniProt Q8R4B8)
assay_name: Inhibition of NLRP3 inflammasome in LPS-primed mouse J774.A1 cells assessed as reduction in IL-1beta secretion preincubated with compound for 1 hr followed by nigericin stimulation for 1 hr by ELISA
pIC50: −log10 of the molar value.

| smiles_text | target_desc | pIC50 |
| --- | --- | --- |
| CCCCc1oc2ccc(S(=O)(=O)NCCN(C)C)cc2c1C(=O)c1ccc(OCCCN(CCCC)CCCC)cc1 | NACHT, LRR and PYD domains-containing protein 3 (Mus musculus, UniProt Q8R4B8) | < 4.00 |
| CCCCc1oc2ccc(S(=O)(=O)N(CCC)CCC)cc2c1C(=O)c1ccc(OCCCN(CCCC)CCCC)cc1 | NACHT, LRR and PYD domains-containing protein 3 (Mus musculus, UniProt Q8R4B8) | < 4.00 |

// below: pIC50 requested for another compound
Input: Returns the measured pIC50 for the input compound. Input: `CCCCc1oc2ccc(S(=O)(=O)NC)cc2c1C(=O)c1ccc(OCCCN(CCCC)CCCC)cc1`
Output: 4.65

====

Attribute: pIC50
target_desc: NACHT, LRR and PYD domains-containing protein 3 (Mus musculus, UniProt Q8R4B8)
assay_name: Inhibition of NLRP3 inflammasome in LPS-primed mouse J774.A1 cells assessed as reduction in IL-1beta secretion preincubated with compound for 1 hr followed by nigericin stimulation for 1 hr by ELISA
pIC50: −log10 of the molar value.

Field: example entries. Status: answers known.
| smiles_text | pIC50 |
| --- | --- |
| C=CC(=O)Nc1ccc2oc(CCCC)c(C(=O)c3ccc(OCCCN(CCCC)CCCC)cc3)c2c1 | 4.57 |
| CCCCc1oc2ccccc2c1C(=O)c1ccc(OCCCN(CCCC)CCCC)cc1 | < 4.00 |

Input: Returns the measured pIC50 for the input molecule. Input: `CCCCc1oc2ccc(N)cc2c1C(=O)c1ccc(OCCCN(CCCC)CCCC)cc1`
Output: < 4.00

Reference for the values: ChEMBL document CHEMBL4811287
